- target: UniProt:P23458
- Sequence (P23458 875-1153): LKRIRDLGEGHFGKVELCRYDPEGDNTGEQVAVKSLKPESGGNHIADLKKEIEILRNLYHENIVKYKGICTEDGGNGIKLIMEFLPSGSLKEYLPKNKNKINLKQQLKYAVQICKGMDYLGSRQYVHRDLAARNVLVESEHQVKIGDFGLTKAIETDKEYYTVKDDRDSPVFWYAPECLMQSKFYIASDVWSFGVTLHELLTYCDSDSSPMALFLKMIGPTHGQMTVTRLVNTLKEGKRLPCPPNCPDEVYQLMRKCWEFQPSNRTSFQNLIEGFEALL
- protocolText: Jak biochemical HTRF assay, JAK1
- protocolConditions: HTRF biochemical assay, recombinant GST-tagged catalytic domain; read-out: JAK1 IC50
pIC50: −log10 of the molar value.
measuredEndpoint: pIC50

| compound | recordedValue |
| --- | --- |
| N#C[C@H]1CCCCC[C@@H]1n1nc(Nc2ccc3c(c2)CN(C2CCOCC2)S3(=O)=O)c2c(=O)[nH]ccc21 (single isomer, unassigned) [Example 15-54] | 10.09 |

(I) N#C[C@H]1CCCC[C@@H]1n1nc(Nc2cccc(Cn3cncn3)c2)c2c(=O)[nH]ccc21 [Example 3-50]
(II) CC(C)(C)N1Cc2cc(Nc3nn([C@@H]4CCCCC[C@H]4C#N)c4cc[nH]c(=O)c34)ccc2S1(=O)=O (single isomer, unassigned) [Example 3-177]
Which has the smaller recorded pIC50, I or II ? Refer to your chosen item by its label in the answer. I
